assay: in vitro; conditions: human, hela cells, % viability
Would you kindly list viability at 28.5 h, 10 µM for each of these molecules?
Express your answer in %, writing the number without its unit.

viability at 28.5 h, 10 µM lookup needed for O=C(O)c1cccc(NC(=O)c2c(C(=O)O)cccc2[N+](=O)[O-])c1 , thanks.
99.6

Using the record for O=C(CN1CCN(C/C=C/c2ccccc2)CC1)Nc1ccc(C2CCCCC2)cc1 , report its viability at 28.5 h, 10 µM.
112

So what does the record say about viability at 28.5 h, 10 µM for O=C(CCCn1ccnc1)NC(Cc1ccsc1)c1cccnc1 (centres unmarked) ?
94.9

viability at 28.5 h, 10 µM for CCc1nnc2sc(-c3ccc(C)c(NC(=O)c4ccc(N5CCCCC5)c([N+](=O)[O-])c4)c3)nn12 ?
91.5

Give the measured viability at 28.5 h, 10 µM of COc1ccc2c(c1)CC(=O)NC21CCN(C(=O)CCCC(=O)O)CC1 .
90.3

// lookup viability at 28.5 h, 10 µM for COCCN(Cc1nccs1)C(=O)C1CCc2nn(C)c(=O)n2C1 (centres unmarked)
103

Which viability at 28.5 h, 10 µM value belongs to Cc1cccc(=O)n1CCCn1cnc2nccnc2c1=O ?
116

Could you tell me which viability at 28.5 h, 10 µM is on file for CN1CCC(N(C)C(=O)NCc2c(Cl)cccc2Cl)C1 (centres unmarked) ?
99

Consider the molecule shown here: Cc1ccc(NC(=O)/C=C/C(=O)O)c(NC(=O)c2ccccc2)c1 What is its recorded viability at 28.5 h, 10 µM?
97.3

Consider the molecule O=C(c1cncnc1)N1CCN(C(=O)c2ccco2)CC1 and give its measured viability at 28.5 h, 10 µM.
104

Please give the measured viability at 28.5 h, 10 µM for this molecule: Cc1ccc(SCCCn2cnc3ccccc32)cc1 [CBK267821G]
93.7

What value of viability at 28.5 h, 10 µM has been reported for the following molecule? COc1cccc(Nc2cc(-c3cccc(N)c3)ncn2)c1OC
104

What does the data say about its viability at 28.5 h, 10 µM? Entry: O=C1CCC(=O)N1CCN1C(=O)C2(CC(=O)N(Cc3ccccc3)C2=O)c2ccccc21 (centres unmarked)
101

GET /values?readout=viability at 28.5 h, 10 µM&item= Cc1nn(C)c(C)c1CC(=O)Nc1cccc(CN2CCCCC2)c1
87.4

Sample CCn1c(C(O)c2ccc(OCc3ccccc3)cc2)nc2ccccc21 (centres unmarked) — what was its viability at 28.5 h, 10 µM?
96.1

viability at 28.5 h, 10 µM for CC1(C)Cc2c(ccc3ccccc23)C(NC(Cc2c[nH]c3ccccc23)C(=O)O)=N1 (centres unmarked) ?
89.4

Which viability at 28.5 h, 10 µM is reported for this molecule? O=C(CN1C(=O)[C@@H]2CCCN2C(=O)c2ccccc21)N1CCOCC1
83.9

viability at 28.5 h, 10 µM lookup needed for O=S(=O)(Nc1ccc(-c2csnn2)cc1)c1ccc(F)cc1 , thanks.
92.1

So what does the record say about viability at 28.5 h, 10 µM for O=C(CSc1ccc2nnc(-c3ccccc3)n2n1)NCC1CCCO1 (centres unmarked) ?
96.6

Quick one: viability at 28.5 h, 10 µM for CCOc1cccc(-c2cn3ccnc3c(NCCc3ccccn3)n2)c1 ?
94.4

Reported viability at 28.5 h, 10 µM for OC1(Cn2cnc3ccccc32)CCN(Cc2ccccc2F)CC1 : what is it?
85.3

Need viability at 28.5 h, 10 µM of COc1ccc([C@@]23CC[C@@H](NC(=O)Nc4ccc(F)c(F)c4)C[C@@H]2N(C(=O)CN)CC3)cc1OC , thanks.
111

Report viability at 28.5 h, 10 µM for CCOc1ccc(NC(=O)c2ccc(S(=O)(=O)N(C)C)cc2)c([N+](=O)[O-])c1 please.
90.6

Returns the measured viability at 28.5 h, 10 µM for the input molecule. Input: COc1ccc(NC(=S)NC(=O)c2cc3c(C)nn(-c4ccccc4)c3s2)cc1[N+](=O)[O-]
102

# lookup: viability at 28.5 h, 10 µM of O=C(Cc1cc(F)c(F)c(F)c1)Nc1ccc2[nH]ccc2c1
91.7

Would you kindly share the measured viability at 28.5 h, 10 µM for O=c1c(-c2ccccc2)c(C(F)(F)F)oc2c(CN3CCN(Cc4ccccc4)CC3)c(O)ccc12 ?
95

Field request: viability at 28.5 h, 10 µM | item: O=C(O)C1C(C(=O)O)C1C(=O)O (centres unmarked)
94.9

Quick one: viability at 28.5 h, 10 µM for Nc1nonc1-n1nnc(C(=O)N/N=C2\CCc3ccccc32)c1-c1ccccc1 ?
95.1

Which measured viability at 28.5 h, 10 µM value corresponds to CCn1c(=O)n(CC(=O)NCCc2ccccc2)c2cccnc21 ?
76.1

# lookup: viability at 28.5 h, 10 µM of CCCc1nc(SC)ncc1C(=O)NCc1ccccn1
108

Record request: viability at 28.5 h, 10 µM value, item CS(=O)(=O)N1CCN(C2CCN(Cc3ccccc3)CC2)CC1
95.9

Please report the recorded viability at 28.5 h, 10 µM for CCN(Cc1ccccc1)C(=O)NCCc1c[nH]c2ccc(OC)cc12 .
87
